Parameter SILAC ratio Psmb2: see the listing below.
System under test: AEA-DA lipid probe targets in Neuro2a cells (Mus musculus)
Protocol conditions: competitor 25 μM

The following compounds have reported results that may help.
O=C(/C=C/c1cccnc1)NCCCCC1CCN(C(=O)c2ccccc2)CC1 [FK-866, reference compound]    1.7
C=CCN(C)CCCCCCOc1ccc(C(=O)c2ccc(Br)cc2)c(F)c1 [Ro 48-8071, reference compound]    1.0
CN1CCN(C(=O)c2[nH]c3ccc([N+](=O)[O-])cc3c2-c2ccccc2)CC1 [MJN228]    1.4

Could you now look at the following compound, please?
Endpoint output: SILAC ratio Psmb2 of CN1CCN(C(=O)c2c(-c3ccccc3)c3cc([N+](=O)[O-])ccc3n2C)CC1 [KML110] . Value?
1.7

----------
System under test: AEA-DA lipid probe targets in Neuro2a cells (Mus musculus, UniProt Q791V5)
Sequence (Q791V5 whole entry): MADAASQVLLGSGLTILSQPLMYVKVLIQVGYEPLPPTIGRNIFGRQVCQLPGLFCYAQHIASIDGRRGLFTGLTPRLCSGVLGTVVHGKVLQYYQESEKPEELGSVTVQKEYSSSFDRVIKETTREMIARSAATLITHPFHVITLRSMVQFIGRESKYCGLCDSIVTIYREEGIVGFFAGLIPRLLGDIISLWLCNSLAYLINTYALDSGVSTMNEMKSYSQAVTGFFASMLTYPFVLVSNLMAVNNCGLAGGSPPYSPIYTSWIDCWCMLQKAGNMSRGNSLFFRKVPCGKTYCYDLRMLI
Protocol conditions: competitor 25 μM
Property: SILAC ratio Mtch2; scope: individual compounds
In your answer, state the number alone without any accompanying words.

Solved cases (3 shown):
CN1CCN(C(=O)c2[nH]c3ccc([N+](=O)[O-])cc3c2-c2ccccc2)CC1    1.3
C=CCN(C)CCCCCCOc1ccc(C(=O)c2ccc(Br)cc2)c(F)c1 [Ro 48-8071, reference compound]    0.9
CN1CCN(C(=O)c2c(-c3ccccc3)c3cc([N+](=O)[O-])ccc3n2C)CC1    1.3

Now look at this entry.
Look up SILAC ratio Mtch2 for this compound: O=C(/C=C/c1cccnc1)NCCCCC1CCN(C(=O)c2ccccc2)CC1 [FK-866, reference compound]
1.1

----------
System under test: AEA-DA lipid probe targets in Neuro2a cells (Mus musculus)
Protocol conditions: competitor 25 μM
Measure name: SILAC ratio, Nenf
Form rule: numeric answer, no unit written next to it.

Here's what some known entries look like.
CN1CCN(C(=O)c2c(-c3ccccc3)c3cc([N+](=O)[O-])ccc3n2C)CC1    1.7
CN1CCN(C(=O)c2[nH]c3ccc([N+](=O)[O-])cc3c2-c2ccccc2)CC1    1.3
C=CCN(C)CCCCCCOc1ccc(C(=O)c2ccc(Br)cc2)c(F)c1 [Ro 48-8071, reference compound]    0.9

May I ask what SILAC ratio, Nenf has been recorded for O=C(/C=C/c1cccnc1)NCCCCC1CCN(C(=O)c2ccccc2)CC1 [FK-866, reference compound] ?
2.6

----------
Recorded SILAC ratio Rpn2 for the following molecules
System under test: AEA-DA lipid probe targets in Neuro2a cells (Mus musculus, UniProt Q9DBG6)
Sequence (Q9DBG6 23-631): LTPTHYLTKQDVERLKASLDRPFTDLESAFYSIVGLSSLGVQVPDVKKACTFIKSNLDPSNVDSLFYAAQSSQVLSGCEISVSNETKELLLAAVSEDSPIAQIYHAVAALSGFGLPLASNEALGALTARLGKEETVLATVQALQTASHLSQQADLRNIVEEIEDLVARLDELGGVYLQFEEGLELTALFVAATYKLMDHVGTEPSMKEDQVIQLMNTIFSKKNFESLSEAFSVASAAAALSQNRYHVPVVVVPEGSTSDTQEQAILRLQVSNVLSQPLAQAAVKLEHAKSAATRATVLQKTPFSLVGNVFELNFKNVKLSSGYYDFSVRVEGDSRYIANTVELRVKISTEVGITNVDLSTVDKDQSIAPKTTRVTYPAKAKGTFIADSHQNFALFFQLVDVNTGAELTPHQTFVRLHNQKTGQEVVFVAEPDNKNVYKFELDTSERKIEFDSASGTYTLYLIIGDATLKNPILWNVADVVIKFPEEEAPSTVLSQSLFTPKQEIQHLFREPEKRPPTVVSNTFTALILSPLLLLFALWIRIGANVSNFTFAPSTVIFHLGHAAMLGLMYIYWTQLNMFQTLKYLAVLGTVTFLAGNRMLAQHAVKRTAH
Protocol conditions: competitor 25 μM
Please respond with just the number, no unit label.

These solved cases illustrate the format of a correct answer.
C=CCN(C)CCCCCCOc1ccc(C(=O)c2ccc(Br)cc2)c(F)c1 [Ro 48-8071, reference compound]    1.0
CN1CCN(C(=O)c2c(-c3ccccc3)c3cc([N+](=O)[O-])ccc3n2C)CC1    1.2
O=C(/C=C/c1cccnc1)NCCCCC1CCN(C(=O)c2ccccc2)CC1 [FK-866, reference compound]    1.1

Would you kindly share the measured SILAC ratio Rpn2 for `CN1CCN(C(=O)c2[nH]c3ccc([N+](=O)[O-])cc3c2-c2ccccc2)CC1` ?
1.3

----------
System under test: AEA-DA lipid probe targets in Neuro2a cells (Mus musculus)
Protocol conditions: competitor 25 μM
Measure name: SILAC ratio, Tram1
Number only, no unit.

Any idea what its SILAC ratio, Tram1 is? The compound is `CN1CCN(C(=O)c2c(-c3ccccc3)c3cc([N+](=O)[O-])ccc3n2C)CC1`
1.7

Same thing, different compound: O=C(/C=C/c1cccnc1)NCCCCC1CCN(C(=O)c2ccccc2)CC1 [FK-866, reference compound]
1.2

Lookup C=CCN(C)CCCCCCOc1ccc(C(=O)c2ccc(Br)cc2)c(F)c1 [Ro 48-8071, reference compound]
1.8

Then `CN1CCN(C(=O)c2[nH]c3ccc([N+](=O)[O-])cc3c2-c2ccccc2)CC1` ?
1.8

----------
System under test: AEA-DA lipid probe targets in Neuro2a cells (Mus musculus)
Protocol conditions: competitor 25 μM
Measure name: SILAC ratio, Tmem160
Please respond with just the number, no unit label.

Worked set:
C=CCN(C)CCCCCCOc1ccc(C(=O)c2ccc(Br)cc2)c(F)c1 [Ro 48-8071, reference compound]    1.2
CN1CCN(C(=O)c2[nH]c3ccc([N+](=O)[O-])cc3c2-c2ccccc2)CC1 [MJN228]    1.5
CN1CCN(C(=O)c2c(-c3ccccc3)c3cc([N+](=O)[O-])ccc3n2C)CC1 [KML110]    1.3

// moving on: another record for SILAC ratio, Tmem160
For the record O=C(/C=C/c1cccnc1)NCCCCC1CCN(C(=O)c2ccccc2)CC1 [FK-866, reference compound] , what value of SILAC ratio, Tmem160 is listed for AEA-DA lipid probe targets in Neuro2a cells (Mus musculus)?
1.2

----------
System under test: AEA-DA lipid probe targets in Neuro2a cells (Mus musculus, UniProt Q8BGC4)
Sequence (Q8BGC4 1-377): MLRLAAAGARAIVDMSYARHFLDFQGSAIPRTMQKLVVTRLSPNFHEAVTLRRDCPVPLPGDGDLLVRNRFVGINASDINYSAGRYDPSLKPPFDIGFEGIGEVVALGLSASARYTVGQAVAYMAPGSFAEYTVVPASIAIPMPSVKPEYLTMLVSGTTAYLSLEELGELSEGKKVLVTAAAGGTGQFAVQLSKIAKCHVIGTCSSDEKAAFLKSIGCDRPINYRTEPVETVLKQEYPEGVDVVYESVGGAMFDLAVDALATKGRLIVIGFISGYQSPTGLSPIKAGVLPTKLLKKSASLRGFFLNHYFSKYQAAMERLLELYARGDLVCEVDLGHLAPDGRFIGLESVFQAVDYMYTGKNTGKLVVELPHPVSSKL
Protocol conditions: competitor 25 μM
Consider the following compounds and their measured SILAC ratio, Zadh2 readings.
Lab note: record just the number, no unit beside it.

Sample answers from the record:
C=CCN(C)CCCCCCOc1ccc(C(=O)c2ccc(Br)cc2)c(F)c1 [Ro 48-8071, reference compound]    1.0
CN1CCN(C(=O)c2c(-c3ccccc3)c3cc([N+](=O)[O-])ccc3n2C)CC1    1.5
CN1CCN(C(=O)c2[nH]c3ccc([N+](=O)[O-])cc3c2-c2ccccc2)CC1    1.5

Which SILAC ratio, Zadh2 is listed for O=C(/C=C/c1cccnc1)NCCCCC1CCN(C(=O)c2ccccc2)CC1 [FK-866, reference compound] ?
12.6

----------
compounds and their reported SILAC ratio, Abhd5
System under test: AEA-DA lipid probe targets in Neuro2a cells (Mus musculus)
Protocol conditions: competitor 25 μM
Form: value (number only, do not type unit).

GET /values?readout=SILAC ratio, Abhd5&item= O=C(/C=C/c1cccnc1)NCCCCC1CCN(C(=O)c2ccccc2)CC1 [FK-866, reference compound]
1.0

// next record CN1CCN(C(=O)c2c(-c3ccccc3)c3cc([N+](=O)[O-])ccc3n2C)CC1 [KML110]
2.0

And for CN1CCN(C(=O)c2[nH]c3ccc([N+](=O)[O-])cc3c2-c2ccccc2)CC1 [MJN228] ?
2.2

Try this compound next: C=CCN(C)CCCCCCOc1ccc(C(=O)c2ccc(Br)cc2)c(F)c1 [Ro 48-8071, reference compound]
1.4

----------
// reported SILAC ratio P4ha2 for each item listed
System under test: AEA-DA lipid probe targets in Neuro2a cells (Mus musculus)
Protocol conditions: competitor 25 μM
Please give only the number in your answer, with no unit.

C=CCN(C)CCCCCCOc1ccc(C(=O)c2ccc(Br)cc2)c(F)c1 [Ro 48-8071, reference compound]    1.0
CN1CCN(C(=O)c2[nH]c3ccc([N+](=O)[O-])cc3c2-c2ccccc2)CC1 [MJN228]    1.3
CN1CCN(C(=O)c2c(-c3ccccc3)c3cc([N+](=O)[O-])ccc3n2C)CC1 [KML110]    1.3

Attention now shifts to the item below.
Endpoint output: SILAC ratio P4ha2 of O=C(/C=C/c1cccnc1)NCCCCC1CCN(C(=O)c2ccccc2)CC1 [FK-866, reference compound] . Value?
1.1

----------
Catalogue of compounds with associated SILAC ratio, Tmed10
System under test: AEA-DA lipid probe targets in Neuro2a cells (Mus musculus)
Protocol conditions: competitor 25 μM
I'd appreciate a reply containing only the number, no unit.

Examples with their reported SILAC ratio, Tmed10 follow.
CN1CCN(C(=O)c2c(-c3ccccc3)c3cc([N+](=O)[O-])ccc3n2C)CC1 [KML110]    1.2
C=CCN(C)CCCCCCOc1ccc(C(=O)c2ccc(Br)cc2)c(F)c1 [Ro 48-8071, reference compound]    1.0
O=C(/C=C/c1cccnc1)NCCCCC1CCN(C(=O)c2ccccc2)CC1 [FK-866, reference compound]    1.1

API: the following record is the query input.
Entry CN1CCN(C(=O)c2[nH]c3ccc([N+](=O)[O-])cc3c2-c2ccccc2)CC1 [MJN228] has what SILAC ratio, Tmed10?
1.4
